Test system: P388 leukemia ip, CD2F1 mice, survival T/C
ASSAY_INFO: NCI In Vivo Anticancer Drug Screen. Data for tumor model P388 Leukemia (intraperitoneal) in CD2F1 (CDF1) mice
CONDITIONS: endpoint: median survival time; dose: 200.0 mg/kg/injection; schedule: Q04DX003 (ip); vehicle: saline; higher = longer survival
Method: The antitumor activity of compounds was measured in mice bearing transplantable tumors. Survival or tumor size were measured and the results are expressed as the measurement made in the treated group (T) divided by the measurement made in the vehicle treated control group (C). The tumor model used in this assay is P388 Leukemia (intraperitoneal) in CD2F1 (CDF1) mice
Inconclusive results and toxic doses are left out.
OBSERVATION_TYPE: T/C

[[record]]
compound = "CC1(C)OCC2OC=CC(=O)C2O1 (stereo unspecified)"
recorded_measurement = "104 % of control"


Exercise: Look up T/C of `O=C(CCS(=O)(=O)CCC(=O)c1cccs1)c1cccs1` and report it.
Solution: 90 % of control

Exercise: Look up T/C of `COSc1cccc(C(F)(F)F)c1` and report it.
Solution: 100 % of control

Exercise: Look up T/C of `O=C1CCCN1` and report it.
Solution: 100 % of control

Exercise: Look up T/C of CC12CCC(=O)N1C(C(=O)O)CS2 (stereo unspecified) and report it.
Solution: 107 % of control

Exercise: Look up T/C of OCC(COCCCCCCCCCCCCCC1C=CCC1)OCCCCCCCCCCCCCC1C=CCC1 (stereo unspecified) and report it.
Solution: 89 % of control

Exercise: Look up T/C of `CC(=N\O)/C(C)=N/O.CC(=N\O)/C(C)=N/O.[Cl][Rh][Cl]` and report it.
Solution: 100 % of control

Exercise: Look up T/C of `Cc1cc(N=Cc2cccs2)cc(Cl)c1O` and report it.
Solution: 99 % of control

Exercise: Look up T/C of NCC(N)Cn1ccnc1 (stereo unspecified) and report it.
Solution: 95 % of control

Exercise: Look up T/C of COc1cc2cc3c4cc(OC)c(OC)cc4cc[n+]3c(C)c2cc1OC (tested in a mixture with another compound) and report it.
Solution: 184 % of control

Exercise: Look up T/C of `OCC(F)(F)C(F)(F)C(F)(F)CO` and report it.
Solution: 100 % of control
